Test system: SW480
Assay: Cell cycle distribution, flow cytometry with propidium iodide
Format: cell-based, human
Conditions: SW480, 2.5 µM, difference to untreated control
property: Relative change in cell cycle distribution S, % (%)
Response body: numeric value in %, unit text excluded.

Some compounds with known Relative change in cell cycle distribution S, % results, for comparison:
smiles-repr: Cc1c([O-])c(=S)ccn1Cc1ccccc1.Cc1ccc(C(C)C)cc1.[Cl-].[Ru+2]
system: SW480
readout-number: 5

smiles-repr: CC1=C2[O][Ir+]([Cl])[S]=C2C=CN1C.Cc1c(C)c(C)[c-](C)c1C
system: SW480
readout-number: -1

smiles-repr: CC1=C2[O][Ir+]([Cl])[S]=C2C=CN1Cc1ccccc1.Cc1c(C)c(C)[c-](C)c1C
system: SW480
readout-number: 5

Continue with the next compound.
Exercise: What value of measured Relative change in cell cycle distribution S, % is listed for CC1=C2[O][Rh+]([Cl])[S]=C2C=CN1c1cccc2ccccc12.Cc1c(C)c(C)[c-](C)c1C ?
Solution: 7

----------
Tested on: CH1/PA‐1
Assay: Cell cycle distribution, flow cytometry with propidium iodide
Assay type: cell-based, human
Conditions: CH1/PA-1, 2.5 µM, 24 h, mean ± SD
property: Cell cycle distribution G2/M, % (%)
Please respond with the number in % and leave the unit unwritten.

Exercise: Which Cell cycle distribution G2/M, % value belongs to Cc1c([O-])c(=S)ccn1Cc1ccccc1.Cc1ccc(C(C)C)cc1.[Cl-].[Ru+2] ?
Solution: 23

Exercise: Also, CC1=C2[O][Ir+]([Cl])[S]=C2C=CN1Cc1ccccc1.Cc1c(C)c(C)[c-](C)c1C please.
Solution: 34

Exercise: Please answer likewise for CC1=C2[O][Rh+]([Cl])[S]=C2C=CN1c1cccc2ccccc12.Cc1c(C)c(C)[c-](C)c1C
Solution: 27

Exercise: Next entry: Cc1c(O)c(=S)ccn1Cc1ccccc1
Solution: 19

----------
Tested on: CH1/PA‐1
Experiment: Cell cycle distribution, flow cytometry with propidium iodide
Format: cell-based, human
Conditions: CH1/PA-1, 10 µM, 24 h, mean ± SD
Procedure: The influence of two ligands, as well as seven complexes on cell cycle distribution was tested in two of the cancer cell lines (SW480, CH1/PA‐1) by means of flow cytometry. […] CH1/PA‐1 and SW480 cells were harvested by trypsinization, 8×10^4 and 1.2×10^5 cells per well were seeded into 12‐well plates, respectively. […] After incubation overnight at 4 °C in the dark, 5×10^3 cells were measured by flow cytometry with a Millipore Guava easyCyte 8HT instrument (Luminex, USA). […]
Below, each entry is listed alongside its reported Cell cycle distribution S, %.
Provide the reading as a plain figure in %.

smiles-repr: CC1=C2[O][Rh+]([Cl])[S]=C2C=CN1C.Cc1c(C)c(C)[c-](C)c1C
property: Cell cycle distribution S, %
readout-number: 44

Exercise: Please give the measured Cell cycle distribution S, % for this molecule: Cc1c(O)c(=S)ccn1Cc1ccccc1
Solution: 43

Exercise: Lookup Cc1c([O-])c(=S)ccn1Cc1ccccc1.Cc1ccc(C(C)C)cc1.[Cl-].[Ru+2]
Solution: 47

Exercise: And CC1=C2[O][Ir+]([Cl])[S]=C2C=CN1C.Cc1c(C)c(C)[c-](C)c1C ?
Solution: 45

Exercise: What about this molecule? Cc1c(O)c(=S)ccn1C
Solution: 41

----------
Reported pIC50 values follow for various molecules
Test system: A549
Conditions: A549 multicellular spheroids, 96 h drug exposure
pIC50 here: minus log base 10 of the concentration, concentration in moles per litre.

Illustrative cases are given below, each with its answer.
smiles-repr: CC1=C2[O][Rh+]([Cl])[S]=C2C=CN1C.Cc1c(C)c(C)[c-](C)c1C
property: pIC50
readout-number: 3.44
--
smiles-repr: CC1=C2[O][Ir+]([Cl])[S]=C2C=CN1C.Cc1c(C)c(C)[c-](C)c1C
property: pIC50
readout-number: 3.57
--
smiles-repr: Cc1c([O-])c(=S)ccn1Cc1ccccc1.Cc1ccc(C(C)C)cc1.[Cl-].[Ru+2]
property: pIC50
readout-number: 3.54

Exercise: Please give the measured pIC50 for this molecule: CC1=C2[O][Ir+]([Cl])[S]=C2C=CN1Cc1ccccc1.Cc1c(C)c(C)[c-](C)c1C
Solution: 3.87

----------
Test system: CH1/PA‐1
Assay: Cell cycle distribution, flow cytometry with propidium iodide
Format: cell-based, human
Settings: CH1/PA-1, 10 µM, difference to untreated control
# reported Relative change in cell cycle distribution S, %; entries follow
Unit % implied. Number only.

Would you please look over these solved cases?
compound: Cc1c(O)c(=S)ccn1C [Compound 2 a]
u: %
readout-number: 5
//
compound: Cc1c([O-])c(=S)ccn1Cc1ccccc1.Cc1ccc(C(C)C)cc1.[Cl-].[Ru+2] [Compound 3 c]
u: %
readout-number: 11
//
compound: Cc1c(O)c(=S)ccn1Cc1ccccc1 [Compound 2 c]
u: %
readout-number: 7
//
compound: CC1=C2[O][Ir+]([Cl])[S]=C2C=CN1C.Cc1c(C)c(C)[c-](C)c1C [Compound 6 a]
u: %
readout-number: 9

Lab note: next compound to report on.
Exercise: Form field - read-out: Relative change in cell cycle distribution S, %; system: CH1/PA‐1; submitted item: CC1=C2[O][Rh+]([Cl])[S]=C2C=CN1C.Cc1c(C)c(C)[c-](C)c1C [Compound 5 a]
Solution: 8
